# target system: B1 receptor (Oryctolagus cuniculus)
# Sequence (P48748 1-352): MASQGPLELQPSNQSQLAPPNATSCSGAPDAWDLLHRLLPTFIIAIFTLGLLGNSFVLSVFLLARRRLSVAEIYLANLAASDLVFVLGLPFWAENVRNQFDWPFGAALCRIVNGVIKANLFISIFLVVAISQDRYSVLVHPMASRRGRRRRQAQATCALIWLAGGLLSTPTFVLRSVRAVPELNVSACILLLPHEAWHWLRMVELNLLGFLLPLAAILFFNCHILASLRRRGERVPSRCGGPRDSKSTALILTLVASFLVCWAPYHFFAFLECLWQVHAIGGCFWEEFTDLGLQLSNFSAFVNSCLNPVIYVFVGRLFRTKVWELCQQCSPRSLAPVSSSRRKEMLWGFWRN
# assay protocol: cell-based
# measurement conditions: Rb.A. pA2, apparent affinity as antagonist vs desArg9BK; antagonist applied 10 min before; Inactive = no detectable antagonistic effect at ≦ 10 μg/ml
Non-standard residues stand in square brackets, D forms with d. Residues, ends and D or L forms follow the SMILES beside them. d2Nal = N[C@H](Cc1ccc2ccccc2c1)C(=O)O; dTic = O=C(O)[C@H]1Cc2ccccc2CN1; Sar = CNCC(=O)O
List of Kb values.
parameter measured: Kb (nM)

molecule="CC[C@H](C)[C@H](NC(=O)[C@H]1Cc2ccccc2CN1C(=O)[C@H](CO)NC(=O)[C@H](Cc1ccccc1)NC(=O)CNC(=O)[C@@H]1CCCN1C(=O)[C@@H]1CCCN1C(=O)[C@H](CCCNC(=N)N)NC(=O)[C@H](N)CCCNC(=N)N)C(=O)O [Compound 13, D-Arg(D-Tic^7, Ile^8)desArg^9BK] (H-[dR]RPPGFS[dTic]I-OH; N-terminus and C-terminus assumed)" parameter_measured=Kb value_units=nM reported_result=107
molecule="CNCC(=O)N[C@@H](CCCNC(=N)N)C(=O)N1CCC[C@H]1C(=O)N1CCC[C@H]1C(=O)NCC(=O)N[C@@H](Cc1ccccc1)C(=O)N[C@@H](CO)C(=O)N1Cc2ccccc2C[C@@H]1C(=O)N[C@@H](CC(C)C)C(=O)O [Compound 9, Sar(D-Tic^7, Leu^8)desArg^9BK] (H-[Sar]RPPGFS[dTic]L-OH; N-terminus and C-terminus assumed)" parameter_measured=Kb value_units=nM reported_result=692
molecule="CC(=O)N[C@@H](CCCCN)C(=O)N[C@@H](CCCNC(=N)N)C(=O)N1CCC[C@H]1C(=O)N1CCC[C@H]1C(=O)NCC(=O)N[C@@H](Cc1ccccc1)C(=O)N[C@@H](CO)C(=O)N1Cc2ccccc2C[C@@H]1C(=O)N[C@@H](CC(C)C)C(=O)O [Compound 11, AcLys(D-Tic^7, Leu^8)desArg^9BK] (Ac-KRPPGFS[dTic]L-OH; C-terminus assumed)" parameter_measured=Kb value_units=nM reported_result=6760
molecule="CC[C@H](C)[C@H](NC(=O)[C@@H](Cc1ccc2ccccc2c1)NC(=O)[C@H](CO)NC(=O)[C@H](Cc1ccccc1)NC(=O)CNC(=O)[C@@H]1CCCN1C(=O)[C@@H]1CCCN1C(=O)[C@H](CCCNC(=N)N)NC(=O)[C@H](N)CCCNC(=N)N)C(=O)O [Compound 23, D-Arg(D-βNal^7, Ile^8)desArg^9BK] (H-[dR]RPPGFS[d2Nal]I-OH; N-terminus and C-terminus assumed)" parameter_measured=Kb value_units=nM reported_result=19.1
molecule="CC(C)C[C@H](NC(=O)[C@@H](Cc1ccc2ccccc2c1)NC(=O)[C@H](CO)NC(=O)[C@H](Cc1ccccc1)NC(=O)CNC(=O)[C@@H]1CCCN1C(=O)[C@@H]1CCCN1C(=O)[C@H](CCCNC(=N)N)NC(=O)[C@H](N)CCCNC(=N)N)C(=O)O [Compound 24, D-Arg(D-βNal^7, Leu^8)desArg^9BK] (H-[dR]RPPGFS[d2Nal]L-OH; N-terminus and C-terminus assumed)" parameter_measured=Kb value_units=nM reported_result=50.1
molecule="CC(=O)N[C@@H](CCCCN)C(=O)N[C@@H](CCCNC(=N)N)C(=O)N1CCC[C@H]1C(=O)N1CCC[C@H]1C(=O)NCC(=O)N[C@@H](Cc1ccccc1)C(=O)N[C@@H](CO)C(=O)N[C@H](Cc1ccc2ccccc2c1)C(=O)N[C@@H](CC(C)C)C(=O)O [Compound 18, AcLys(D-βNal^7, Leu^8)desArg^9BK] (Ac-KRPPGFS[d2Nal]L-OH; C-terminus assumed)" parameter_measured=Kb value_units=nM reported_result=12.3

----------
# Tested on: angiotensin-converting enzyme (ACE)
# Construct: purified angiotensin-converting enzyme (ACE) from rabbit lungs; purchased Sigma, St-Louis, Mo; host or cells: purified from rabbit lungs
# assay protocol: Metabolic degradation by purified angiotensin-converting enzyme, HPLC analysis
# Format: in vitro ADME, rabbit
# measurement conditions: rabbit, isolated enzyme ace, pH 7.5
Non-standard residues stand in square brackets, D forms with d. Residues, ends and D or L forms follow the SMILES beside them. d2Nal = N[C@H](Cc1ccc2ccccc2c1)C(=O)O
Reported metabolised at 0.5 h, 42.1 μmol/L values for a set of molecules
parameter measured: metabolised at 0.5 h, 42.1 μmol/L (%)

molecule="CC[C@H](C)[C@H](NC(=O)[C@@H](Cc1ccc2ccccc2c1)NC(=O)[C@H](CO)NC(=O)[C@H](Cc1ccccc1)NC(=O)CNC(=O)[C@@H]1CCCN1C(=O)[C@@H]1CCCN1C(=O)[C@H](CCCNC(=N)N)NC(=O)[C@H](N)CCCCN)C(=O)O [Compound 25, D-Lys(D-βNal^7, Ile^8)desArg^9BK] (H-[dK]RPPGFS[d2Nal]I-OH; N-terminus and C-terminus assumed)" value_units=% reported_result=9
molecule="CC(C)C[C@H](NC(=O)[C@@H]1CCCN1C(=O)[C@H](CO)NC(=O)[C@H](Cc1ccccc1)NC(=O)CNC(=O)[C@@H]1C[C@@H](O)CN1C(=O)[C@@H]1CCCN1C(=O)[C@H](CCCNC(=N)N)NC(=O)[C@@H](N)CCCCN)C(=O)O [Compound 3, Lys(Hyp^3, Leu^8)desArg^9BK]" value_units=% reported_result=40

----------
Recorded measurements of Rb.J.V. α^E, one per entry
# target system: B2 receptor (Oryctolagus cuniculus, UniProt Q28642)
# Sequence (Q28642 1-367): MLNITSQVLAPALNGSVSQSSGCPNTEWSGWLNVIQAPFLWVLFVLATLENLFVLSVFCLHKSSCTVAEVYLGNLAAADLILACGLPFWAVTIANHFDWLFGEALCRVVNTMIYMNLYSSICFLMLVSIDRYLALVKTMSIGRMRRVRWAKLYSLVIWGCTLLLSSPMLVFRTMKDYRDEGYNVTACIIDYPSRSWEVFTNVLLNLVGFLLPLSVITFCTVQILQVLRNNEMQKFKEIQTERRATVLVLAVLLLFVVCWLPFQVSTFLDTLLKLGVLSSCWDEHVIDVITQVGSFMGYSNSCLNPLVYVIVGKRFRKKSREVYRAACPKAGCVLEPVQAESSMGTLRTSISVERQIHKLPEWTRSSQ
# assay protocol: cell-based
# measurement conditions: residual agonistic activity at 10 μg/mL in comparison with BK
Non-standard residues stand in square brackets, D forms with d. Residues, ends and D or L forms follow the SMILES beside them. 2Nal = N[C@@H](Cc1ccc2ccccc2c1)C(=O)O; d2Nal = N[C@H](Cc1ccc2ccccc2c1)C(=O)O; dTic = O=C(O)[C@H]1Cc2ccccc2CN1
parameter measured: Rb.J.V. α^E

molecule="CC(=O)N[C@@H](Cc1ccc(O)cc1)C(=O)NCCCCCC(=O)N[C@@H](CCCCN)C(=O)N[C@@H](CCCNC(=N)N)C(=O)N1CCC[C@H]1C(=O)N1CCC[C@H]1C(=O)NCC(=O)N[C@@H](Cc1ccccc1)C(=O)N[C@@H](CO)C(=O)N1CCC[C@H]1C(=O)N[C@@H](CC(C)C)C(=O)O [Compound 27, AcTyrεAhxLys(Leu^8)desArg^9BK]" parameter_measured="Rb.J.V. α^E" reported_result=0.03
molecule="CC(=O)N[C@@H](CCCCN)C(=O)N[C@@H](CCCNC(=N)N)C(=O)N1CCC[C@H]1C(=O)N1CCC[C@H]1C(=O)NCC(=O)N[C@@H](Cc1ccccc1)C(=O)N[C@@H](CO)C(=O)N[C@H](Cc1ccc2ccccc2c1)C(=O)N[C@@H](CC(C)C)C(=O)O [Compound 18, AcLys(D-βNal^7, Leu^8)desArg^9BK] (Ac-KRPPGFS[d2Nal]L-OH; C-terminus assumed)" parameter_measured="Rb.J.V. α^E" reported_result=0
molecule="CC(=O)N[C@@H](CCCCN)C(=O)N[C@@H](CCCNC(=N)N)C(=O)N1CCC[C@H]1C(=O)N1CCC[C@H]1C(=O)NCC(=O)N[C@@H](Cc1ccccc1)C(=O)N[C@@H](CO)C(=O)N1Cc2ccccc2C[C@@H]1C(=O)N[C@@H](CC(C)C)C(=O)O [Compound 11, AcLys(D-Tic^7, Leu^8)desArg^9BK] (Ac-KRPPGFS[dTic]L-OH; C-terminus assumed)" parameter_measured="Rb.J.V. α^E" reported_result=0.37
molecule="CC[C@H](C)[C@H](NC(=O)[C@H](Cc1ccc2ccccc2c1)NC(=O)[C@H](CO)NC(=O)[C@H](Cc1ccccc1)NC(=O)CNC(=O)[C@@H]1CCCN1C(=O)[C@@H]1CCCN1C(=O)[C@H](CCCNC(=N)N)NC(=O)[C@H](CCCCN)NC(C)=O)C(=O)O [Compound 20, AcLys(L-βNal^7, Ile^8)desArg^9BK] (Ac-KRPPGFS[2Nal]I-OH; C-terminus assumed)" parameter_measured="Rb.J.V. α^E" reported_result=0
